# target.desc: UniProt P12497
# assay.summary: LEDGF independent integration (strand transfer) assay
# Type: biochemical
# condition.details: 500 nM integrase, 32P-labled recessed end 19-mer U5 DNA, 37° C. 1 hour

compound	unit.annotation	IC50
O=c1[nH]c(-c2ccc(-c3nnn[nH]3)cc2)c(-c2ccc(F)cc2)cc1O [drawing 238]	µM	11.7
O=C(O)c1cccc(-c2c[nH]c(=O)c(O)c2)c1 [drawing 240]	µM	20.5
O=C(O)c1ccc(-c2c[nH]c(=O)c(O)c2)cc1 [drawing 242]	µM	50.7
O=c1[nH]c(-c2ccc(-c3nnn[nH]3)cc2)ccc1O [drawing 241]	µM	23.7
O=c1[nH]cc(-c2ccc(F)cc2)cc1O [drawing 239]	µM	15.7
O=c1[nH]c(-c2ccc(O)c(O)c2)ccc1O [drawing 237]	µM	6

###

# target.desc: HIV-1 integrase (Human immunodeficiency virus type 1 group M subtype B, UniProt P12497)
# assay.summary: 3′-processing assay
# Type: biochemical
# condition.details: 500 nM integrase, blunt ended 32P-labled 21-mer U5 DNA, 37° C. 1 hour; read-out: IC50 (μM) 3′-Process

compound	IC50
O=c1[nH]c(-c2ccc(O)c(O)c2)ccc1O [drawing 237]	8.2 µM
O=C(O)c1ccc(-c2c[nH]c(=O)c(O)c2)cc1 [drawing 242]	7.4 µM
O=c1[nH]c(-c2ccc(-c3nnn[nH]3)cc2)ccc1O [drawing 241]	12.6 µM
O=C(O)c1cccc(-c2c[nH]c(=O)c(O)c2)c1 [drawing 240]	22.2 µM
O=c1[nH]c(-c2ccc(-c3nnn[nH]3)cc2)c(-c2ccc(F)cc2)cc1O [drawing 238]	20.8 µM
O=c1[nH]cc(-c2ccc(F)cc2)cc1O [drawing 239]	11.6 µM

###

Listed compounds paired with reported IC50
# target.desc: 2009 H1N1 influenza A endonuclease (PAN domain) (Influenza A virus)
# assay.summary: biochemical
# Design: species or system Influenza A (pandemic 2009 H1N1)
# condition.details: 500 nM or 50 nM enzyme; fluorescence change over time at 37 degrees Celsius; read-out: IC50 (uM) using either 500 nM or 50 nM enzyme

substance.smiles	IC50 / µM
O=c1[nH]cc(-c2ccc(F)cc2)cc1O	0.73
N#Cc1cccc(-c2ncc(O)c(=O)[nH]2)c1	0.25
O=c1[nH]c(-c2ccc(F)cc2)ncc1O	0.58
O=c1[nH]nc(-c2ccc(F)cc2)cc1O	6
O=c1[nH]c(-c2ccc(-c3nnn[nH]3)cc2)ncc1O	0.15
N#Cc1ccc(-c2cc(O)c(=O)[nH]n2)cc1	9.3
N#Cc1ccc(-c2ncc(O)c(=O)[nH]2)cc1	0.52
O=c1[nH]c(-c2ccc(F)cc2)ccc1O	0.43
O=c1[nH]nc(-c2ccc(-c3nnn[nH]3)cc2)cc1O	3
O=c1[nH]c(-c2cccc(-c3nnn[nH]3)c2)ncc1O	0.48

###

molecule	melting point
O=c1[nH]nc(-c2ccc(F)cc2)cc1O	281 to 283 °C
O=c1[nH]c(-c2ccc(-c3nnn[nH]3)cc2)c(-c2ccc(-c3nnn[nH]3)cc2)cc1O	180 to 182 °C
N#Cc1ccc(-c2cc(O)c(=O)[nH]n2)cc1	305 to 307 °C
N#Cc1ccc(-c2cc(O)c(=O)[nH]c2-c2ccc(F)cc2)cc1	255 to 257 °C
O=c1[nH]ncc(-c2ccc(F)cc2)c1O	274 to 276 °C
N#Cc1ccc(-c2[nH]c(=O)c(O)cc2-c2ccc(F)cc2)cc1	255 to 258 °C
O=c1[nH]cc(-c2ccccc2)cc1O [5-Phenyl-3-hydroxypyridin-2(1H)-one]	175 to 177 °C
O=c1[nH]cnc(-c2ccc(F)cc2)c1O	285 to 287 °C
O=c1[nH]c(-c2ccc(F)cc2)c(-c2ccc(-c3nnn[nH]3)cc2)cc1O	185 to 188 °C
O=c1[nH]c(-c2ccc(F)cc2)c(-c2ccc(F)cc2)cc1O	152 to 157 °C
N#Cc1ccc(-c2cc(O)c(=O)[nH]c2-c2ccc(C#N)cc2)cc1	159 to 162 °C
O=c1[nH]c(-c2ccc(F)cc2)ncc1O	252 to 254 °C
O=c1[nH]c(-c2ccccc2)c(-c2ccccc2)cc1O	249 to 255 °C

###

# target.desc: 2009 H1N1 influenza A endonuclease (PAN domain) (Influenza A virus, UniProt C3W5S0)
# assay.summary: biochemical
# Design: species or system Influenza A (pandemic 2009 H1N1)
# condition.details: IC50 (uM) using either 500 nM or 50 nM enzyme, fluorescence change over time at 37 degrees Celsius
Grouping key: IC50. Bins: lower level = under 0.3 µM, middle level = from 0.3 µM up to 2 µM, upper level = 2 µM and over

compound	assigned.label
O=c1[nH]cc(Br)cc1O [5-Bromo-3-hydroxypyridin-2(1H)-one]	upper level
N#Cc1ccc(-c2cc(O)c(=O)[nH]c2-c2ccc(F)cc2)cc1	lower level
NC(=O)c1cccc(-c2cc(O)c(=O)[nH]c2-c2cccc(C(N)=O)c2)c1	lower level
O=c1[nH]cc(-c2cccc(F)c2)cc1O	middle level
COc1cccc(-c2ccc(O)c(=O)[nH]2)c1	middle level
O=c1[nH]c(-c2cccc(F)c2)c(-c2cccc(F)c2)cc1O	lower level
O=c1[nH]c(-c2ccc(-c3nnn[nH]3)cc2)c(-c2ccc(-c3nnn[nH]3)cc2)cc1O	lower level
O=c1[nH]c(C2CCCCC2)ccc1O [6-Cyclohexyl-3-hydroxypyridin-2(1H)-one]	upper level
CC(C)(C)c1ccc(-c2ccc(O)c(=O)[nH]2)cc1	middle level
O=c1[nH]cc(-c2ccccc2)cc1O [5-Phenyl-3-hydroxypyridin-2(1H)-one]	upper level
N#Cc1ccc(-c2c[nH]c(=O)c(O)c2)cc1	upper level

###

# target.desc: 2009 H1N1 influenza A endonuclease (PAN domain) (Influenza A virus, UniProt C3W5S0)
# assay.summary: biochemical
# Design: species or system Influenza A (pandemic 2009 H1N1)
# condition.details: IC50 (uM) using either 500 nM or 50 nM enzyme, fluorescence change over time at 37 degrees Celsius
Listed compounds paired with reported IC50
readout.kind: IC50 (µM)

substance.smiles	unit.annotation	value.observed
O=c1[nH]c(-c2ccc(C(F)(F)F)cc2)ccc1O	µM	0.4
O=c1[nH]c(Br)c(-c2ccc(F)cc2)cc1O	µM	4.2
O=c1[nH]cc(-c2ccc(-c3nnn[nH]3)cc2)cc1O	µM	0.37
O=c1[nH]c(-c2ccc([N+](=O)[O-])cc2)c(-c2ccc([N+](=O)[O-])cc2)cc1O	µM	0.72
O=C(O)c1cccc(-c2cc(O)c(=O)[nH]c2-c2ccc(F)cc2)c1	µM	0.035
N#Cc1ccc(-c2cc(O)c(=O)[nH]c2-c2ccc(C#N)cc2)cc1	µM	0.1
N#Cc1ccc(-c2ccc(O)c(=O)[nH]2)cc1	µM	1.2

###

# target.desc: 2009 H1N1 influenza A endonuclease (PAN domain) (Influenza A virus)
# assay.summary: biochemical
# Design: species or system Influenza A (pandemic 2009 H1N1)
# condition.details: IC50 (uM) using either 500 nM or 50 nM enzyme, fluorescence change over time at 37 degrees Celsius
Listed compounds paired with reported log10 IC50
readout.kind: log10 IC50 (log10 of the value in µM)

compound	target.desc	value.observed
O=c1[nH]cc(Cl)cc1O [5-Chloro-3-hydroxypyridin-2(1H)-one]	2009 H1N1 influenza A endonuclease (PAN domain) (Influenza A virus)	0.70
O=c1[nH]c(C2=CCCCC2)ccc1O	2009 H1N1 influenza A endonuclease (PAN domain) (Influenza A virus)	-0.12
O=c1[nH]cnc(-c2ccc(F)cc2)c1O	2009 H1N1 influenza A endonuclease (PAN domain) (Influenza A virus)	2.29
O=c1[nH]c(-c2ccc(O)c(O)c2)ccc1O	2009 H1N1 influenza A endonuclease (PAN domain) (Influenza A virus)	-0.22
O=C(O)c1ccc(-c2cc(O)c(=O)[nH]c2-c2ccc(C(=O)O)cc2)cc1	2009 H1N1 influenza A endonuclease (PAN domain) (Influenza A virus)	-0.05
N#Cc1ccc(Nc2cc(O)c(=O)[nH]c2-c2ccc(F)cc2)cc1	2009 H1N1 influenza A endonuclease (PAN domain) (Influenza A virus)	0.00
O=C(O)c1cccc(-c2c[nH]c(=O)c(O)c2)c1	2009 H1N1 influenza A endonuclease (PAN domain) (Influenza A virus)	0.25
O=c1[nH]cc(C2CCCCC2)cc1O [5-Cyclohexyl-3-hydroxypyridin-2(1H)-one]	2009 H1N1 influenza A endonuclease (PAN domain) (Influenza A virus)	0.32
O=c1[nH]cc(-c2cccc(-c3nnn[nH]3)c2)cc1O	2009 H1N1 influenza A endonuclease (PAN domain) (Influenza A virus)	-0.07
O=C(O)c1cccc(-c2cc(O)c(=O)[nH]c2-c2cccc(C(=O)O)c2)c1	2009 H1N1 influenza A endonuclease (PAN domain) (Influenza A virus)	-0.15
O=c1[nH]c(-c2ccc(-c3nnn[nH]3)cc2)c(-c2ccc(F)cc2)cc1O	2009 H1N1 influenza A endonuclease (PAN domain) (Influenza A virus)	-1.74
N#Cc1ccc(-c2[nH]c(=O)c(O)cc2-c2ccc(F)cc2)cc1	2009 H1N1 influenza A endonuclease (PAN domain) (Influenza A virus)	-1.27
O=c1[nH]c(-c2cccc(F)c2)ccc1O	2009 H1N1 influenza A endonuclease (PAN domain) (Influenza A virus)	-0.28
O=c1[nH]c(-c2ccc(-c3nnn[nH]3)cc2)ccc1O	2009 H1N1 influenza A endonuclease (PAN domain) (Influenza A virus)	-0.07
O=C(O)c1ccc(-c2c[nH]c(=O)c(O)c2)cc1	2009 H1N1 influenza A endonuclease (PAN domain) (Influenza A virus)	-0.29
O=c1[nH]cc(Cc2ccc(F)cc2)cc1O	2009 H1N1 influenza A endonuclease (PAN domain) (Influenza A virus)	0.93
COc1ccc(-c2ccc(O)c(=O)[nH]2)cc1	2009 H1N1 influenza A endonuclease (PAN domain) (Influenza A virus)	0.08
N#Cc1cccc(-c2cc(O)c(=O)[nH]c2-c2ccc(F)cc2)c1	2009 H1N1 influenza A endonuclease (PAN domain) (Influenza A virus)	-1.31
O=c1[nH]c(Cc2ccc(-c3ccccc3)cc2)c(-c2ccc(F)cc2)cc1O	2009 H1N1 influenza A endonuclease (PAN domain) (Influenza A virus)	-0.92
NC(=O)c1ccc(-c2cc(O)c(=O)[nH]c2-c2ccc(C(N)=O)cc2)cc1	2009 H1N1 influenza A endonuclease (PAN domain) (Influenza A virus)	-0.64
O=c1[nH]c(-c2ccc(F)cc2)c(-c2cccc(-c3nnn[nH]3)c2)cc1O	2009 H1N1 influenza A endonuclease (PAN domain) (Influenza A virus)	-1.47
O=c1[nH]c(Br)c(Br)cc1O [5,6-Dibromo-3-hydroxypyridin-2(1H)-one]	2009 H1N1 influenza A endonuclease (PAN domain) (Influenza A virus)	0.18
